tested on: PDE isozyme I; experiment: Inhibition of PDE (isozyme I); assay type: biochemical; settings: pig ventricular muscle, [3H]-cAMP substrate; read-out: PDE Inhibitory activity (IC5 :μM), PDE isozyme I
Endpoint Label: IC50 (µM)

{"columns": ["Record Smiles", "Readout Number"],
 "data": [
  ["Cn1c(=O)c(-c2ccccc2)cc2cccnc21", 29],
  ["C=CCn1c(=O)c(-c2ccc(OC)cc2)cc2cccnc21", 49],
  ["O=c1c(-c2ccccn2)cc2cccnc2n1CC1CC1", 66]
]}

====

Biological target: PDE isozyme II (Sus scrofa)
Construct: centrifugation supernatant of the homogenate of pig ventricular muscle; from tissue; host or cells: pig ventricular muscle, supernatant of homogenate, DEAE-cellulose fraction
Assay: Inhibition of PDE (isozyme II)
Format: biochemical
Conditions: pig ventricular muscle, [3H]-cAMP substrate; read-out: PDE Inhibitory activity (IC5 :μM), PDE isozyme II
Experimental: Inhibition of PDE by 1,8-naphthyridin-2-one derivative The centrifugation supernatant of the homogenate of pig ventricular muscle was separated into isozyme by ortho-(diethylaminoethyl)-cellulose chromatography and used as an enzyme source. Respective isozymes were confirmed by the reaction with respective activity regulators. […] The [^3 H]-adenosine radioactivity of the supernatant was determined, based on which the PDE inhibitory action was calculated.
Endpoint Label: IC50 (µM)
I only need the number, in µM, no unit after it.

{"columns": ["Record Smiles", "Units Label", "IC50"],
 "data": [
  ["O=c1c(-c2ccccn2)cc2cccnc2n1CC1CC1", "µM", 18]
]}

Please report IC50 with PDE isozyme II (Sus scrofa) for item `Cn1c(=O)c(-c2ccccc2)cc2cccnc21` .
39

====

target: PDE isozyme III (Sus scrofa); construct: centrifugation supernatant of the homogenate of pig ventricular muscle; from tissue; host or cells: pig ventricular muscle, supernatant of homogenate, DEAE-cellulose fraction; assay: Inhibition of PDE (isozyme III); assay type: biochemical; details: pig ventricular muscle, [3H]-cAMP substrate; read-out: PDE Inhibitory activity (IC5 :μM), PDE isozyme III
Sequence (I3L6S5 1-1145): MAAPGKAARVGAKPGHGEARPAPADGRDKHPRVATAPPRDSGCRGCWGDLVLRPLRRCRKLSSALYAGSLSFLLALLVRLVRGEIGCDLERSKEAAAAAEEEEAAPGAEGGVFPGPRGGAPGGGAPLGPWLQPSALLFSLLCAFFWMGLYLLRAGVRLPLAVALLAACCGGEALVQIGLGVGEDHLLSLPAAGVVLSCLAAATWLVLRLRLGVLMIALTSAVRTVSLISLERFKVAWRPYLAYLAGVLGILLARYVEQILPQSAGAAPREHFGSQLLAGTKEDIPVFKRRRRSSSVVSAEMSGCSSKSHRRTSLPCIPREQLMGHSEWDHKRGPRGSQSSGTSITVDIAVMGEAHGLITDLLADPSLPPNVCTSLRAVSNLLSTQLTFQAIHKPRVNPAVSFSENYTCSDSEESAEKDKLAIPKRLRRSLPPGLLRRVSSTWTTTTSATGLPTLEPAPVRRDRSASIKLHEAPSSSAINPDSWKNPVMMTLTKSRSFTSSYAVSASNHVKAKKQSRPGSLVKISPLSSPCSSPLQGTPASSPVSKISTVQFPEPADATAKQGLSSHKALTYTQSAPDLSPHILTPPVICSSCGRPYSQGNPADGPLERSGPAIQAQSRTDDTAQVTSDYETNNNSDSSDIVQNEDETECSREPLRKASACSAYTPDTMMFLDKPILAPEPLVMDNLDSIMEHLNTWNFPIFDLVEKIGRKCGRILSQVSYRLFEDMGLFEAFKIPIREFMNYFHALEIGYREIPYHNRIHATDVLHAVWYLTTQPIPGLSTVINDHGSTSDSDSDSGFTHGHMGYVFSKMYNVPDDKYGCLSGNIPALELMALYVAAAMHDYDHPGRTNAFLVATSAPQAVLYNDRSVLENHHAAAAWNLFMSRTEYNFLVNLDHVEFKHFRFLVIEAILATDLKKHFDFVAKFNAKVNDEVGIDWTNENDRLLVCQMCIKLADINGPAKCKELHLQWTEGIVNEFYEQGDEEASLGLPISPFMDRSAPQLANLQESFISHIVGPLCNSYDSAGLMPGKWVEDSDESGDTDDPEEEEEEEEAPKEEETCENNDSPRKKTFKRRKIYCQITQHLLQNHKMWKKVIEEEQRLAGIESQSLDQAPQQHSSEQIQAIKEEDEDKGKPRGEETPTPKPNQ
Endpoint Label: IC50 (µM)

a. O=c1c(-c2ccccn2)cc2cccnc2n1CC1CC1
b. C=CCn1c(=O)c(-c2ccc(OC)cc2)cc2cccnc21
Of a and b , whose reported IC50 is numerically smaller? Indicate your choice by writing its label.
b
(b: 44 µM, a: 80 µM)

====

Target: PDE isozyme II (Sus scrofa)
Construct: centrifugation supernatant of the homogenate of pig ventricular muscle; from tissue; host or cells: pig ventricular muscle, supernatant of homogenate, DEAE-cellulose fraction
Sequence (F1SUV3 1-945): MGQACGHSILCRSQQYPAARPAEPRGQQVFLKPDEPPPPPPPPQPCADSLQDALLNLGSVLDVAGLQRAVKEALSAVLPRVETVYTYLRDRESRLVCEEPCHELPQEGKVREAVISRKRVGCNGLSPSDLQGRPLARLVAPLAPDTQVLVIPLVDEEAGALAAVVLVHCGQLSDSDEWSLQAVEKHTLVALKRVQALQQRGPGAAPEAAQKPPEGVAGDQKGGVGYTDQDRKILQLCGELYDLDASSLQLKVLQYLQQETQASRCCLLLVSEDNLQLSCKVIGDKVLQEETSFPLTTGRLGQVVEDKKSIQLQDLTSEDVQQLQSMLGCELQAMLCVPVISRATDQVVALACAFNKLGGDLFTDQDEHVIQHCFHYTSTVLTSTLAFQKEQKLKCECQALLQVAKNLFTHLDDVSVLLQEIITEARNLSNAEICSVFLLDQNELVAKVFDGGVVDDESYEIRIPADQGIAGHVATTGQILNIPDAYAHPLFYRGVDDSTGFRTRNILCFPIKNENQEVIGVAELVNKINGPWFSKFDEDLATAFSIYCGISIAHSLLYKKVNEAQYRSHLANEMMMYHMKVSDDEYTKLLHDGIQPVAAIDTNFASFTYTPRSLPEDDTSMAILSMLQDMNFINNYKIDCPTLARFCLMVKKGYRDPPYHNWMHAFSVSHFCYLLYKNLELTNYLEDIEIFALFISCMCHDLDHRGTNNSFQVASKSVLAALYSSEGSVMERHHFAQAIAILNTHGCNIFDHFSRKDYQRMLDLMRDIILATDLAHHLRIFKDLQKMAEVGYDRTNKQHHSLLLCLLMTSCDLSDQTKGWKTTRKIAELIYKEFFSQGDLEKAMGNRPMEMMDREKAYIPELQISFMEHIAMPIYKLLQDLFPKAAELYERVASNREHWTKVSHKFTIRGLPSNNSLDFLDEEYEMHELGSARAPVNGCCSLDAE
Assay: Inhibition of PDE (isozyme II)
Format: biochemical
Conditions: pig ventricular muscle, [3H]-cAMP substrate; read-out: PDE Inhibitory activity (IC5 :μM), PDE isozyme II
Protocol: Inhibition of PDE by 1,8-naphthyridin-2-one derivative The centrifugation supernatant of the homogenate of pig ventricular muscle was separated into isozyme by ortho-(diethylaminoethyl)-cellulose chromatography and used as an enzyme source. Respective isozymes were confirmed by the reaction with respective activity regulators. […] The [^3 H]-adenosine radioactivity of the supernatant was determined, based on which the PDE inhibitory action was calculated.
Endpoint Label: IC50

Solved entries (count: 2):
{"columns": ["Record Smiles", "Measured Target", "IC50"],
 "data": [
  ["Cc1ccccc1-c1cc2cccnc2n(Cc2ccccc2F)c1=O", "PDE isozyme II (Sus scrofa)", "> 50 µM"],
  ["CC(C)CCn1c(=O)c(-c2ccc(Cl)cc2)cc2cccnc21", "PDE isozyme II (Sus scrofa)", "> 50 µM"]
]}

Look up and state reported IC50 for `C=CCn1c(=O)c(-c2ccc(OC)cc2)cc2cccnc21`
> 50 µM
